# System: PBMC from normal individuals
# Protocol description: In vitro T cell proliferative responses of human PBMC ([3H]thymidine incorporation)
# Assay type: cell-based
# Experimental setup: 3rd Stimulation, donor X144
Would you kindly list X144 S.I. for each of these compounds?

Parameter requested: X144 S.I.. Apply to each item below.
1. CC(C)C[C@H](NC(=O)[C@@H](NC(=O)[C@H](C)NC(=O)[C@H](C)NC(=O)[C@H](C)NC(=O)[C@@H](NC(=O)[C@H](CC1CCCCC1)NC(=O)[C@H](CCCCN)NC(=O)[C@@H](C)N)C(C)C)[C@@H](C)O)C(=O)N[C@@H](CCCCN)C(=O)N[C@@H](C)C(=O)N[C@@H](C)C(=O)N[C@H](C)C(N)=O
2. CC(C)C[C@H](NC(=O)[C@@H](NC(=O)[C@H](CC(N)=O)NC(=O)[C@H](C)NC(=O)[C@H](C)NC(=O)[C@@H](NC(=O)[C@H](CC1CCCCC1)NC(=O)[C@H](CCCCN)NC(=O)[C@@H](C)N)C(C)C)[C@@H](C)O)C(=O)N[C@@H](CCCCN)C(=O)N[C@@H](C)C(=O)N[C@@H](C)C(=O)N[C@H](C)C(N)=O
3. CC(C)C[C@H](NC(=O)[C@@H](NC(=O)[C@H](CCCCN)NC(=O)[C@H](C)NC(=O)[C@H](C)NC(=O)[C@@H](NC(=O)[C@H](CC1CCCCC1)NC(=O)[C@H](CCCCN)NC(=O)[C@@H](C)N)C(C)C)[C@@H](C)O)C(=O)N[C@@H](CCCCN)C(=O)N[C@@H](C)C(=O)N[C@@H](C)C(=O)N[C@H](C)C(N)=O
4. CC(C)C[C@H](NC(=O)[C@@H](NC(=O)[C@H](Cc1ccc(O)cc1)NC(=O)[C@H](C)NC(=O)[C@H](C)NC(=O)[C@@H](NC(=O)[C@H](CC1CCCCC1)NC(=O)[C@H](CCCCN)NC(=O)[C@@H](C)N)C(C)C)[C@@H](C)O)C(=O)N[C@@H](CCCCN)C(=O)N[C@@H](C)C(=O)N[C@@H](C)C(=O)N[C@H](C)C(N)=O

Response line:
1: 1.5; 2: 1.4; 3: 2.3; 4: 2.6
